Measured pKi accompanies every entry in the list below.
# system.name: Glutamate NMDA receptor
# assay.remarks: Binding affinity was determined towards NMDA receptor using [3H]thienylcyclidine as radioligand
# Type: protein-complex assay
Scale explanation: pKi corresponds to minus log10 of a concentration expressed in moles per litre.

Please review the entries below; each comes with its answer.
• CCOC1(OCC)C2c3cc(C(F)(F)F)ccc3C([n+]3ccccc32)C1(C)C (stereo not drawn) = 6.40
• COC1(OC)C2c3ccccc3C([n+]3ccccc32)C1(C)C (stereo not drawn) = 6.99

Switching to the query record.
Data request, read-out pKi, for CCCOC1(OCCC)C2c3ccccc3C([n+]3ccccc32)C1(C)C.[O-][Cl+3]([O-])([O-])[O-] (stereo not drawn) 7.92

###

# system.name: Glutamate NMDA receptor
# assay.remarks: Binding affinity was determined towards NMDA receptor using [3H]thienylcyclidine as radioligand
# Format: protein-complex assay
Measured log10 of Ki accompanies every entry in the list below.
Values are log10 of Ki in nM.

• CCOC1C2c3ccccc3C([n+]3ccccc32)C1(C)C (stereo in doubt; 7a) = 2.67
• CCOC1(OCC)C2c3ccccc3C([n+]3ccccc32)C1(C)C (single isomer, unassigned; (-)) = 0.60
• CCOC1(OCC)C2c3ccccc3C([n+]3ccccc32)C1(C)C (racemic) = 0.90
• CCOC1(OCC)C2c3cc(OC)ccc3C([n+]3ccccc32)C1(C)C (stereo not given) = 0.60
• CCOC1(OCC)C2c3c(OC(C)C)cccc3C([n+]3ccccc32)C1(C)C (stereo not given) = 1.68
• CCOC1(OCC)C2c3ccc(OC)cc3C([n+]3ccccc32)C1(C)C (stereo not given) = 2.09
• CCOC1(OCC)C2c3cccc(C)c3C([n+]3ccccc32)C1(C)C (stereo not given) = 2.66
• CCOC1(OCC)C2c3c(Br)cccc3C([n+]3ccccc32)C1(C)C.[O-][Cl+3]([O-])([O-])[O-] (stereo not given) = 2.12

Data request, read-out log10 of Ki, for CCOC1(OCC)C2c3cc(Br)ccc3C([n+]3ccccc32)C1(C)C.[O-][Cl+3]([O-])([O-])[O-] (stereo not given) 1.72

Data request, read-out log10 of Ki, for CCOC1(OCC)C2c3cc([N+](=O)[O-])ccc3C([n+]3ccccc32)C1(C)C.[O-][Cl+3]([O-])([O-])[O-] (stereo not given) 3.44

Data request, read-out log10 of Ki, for CCOC1(OCC)C2c3c(OC)cccc3C([n+]3ccccc32)C1(C)C (stereo not given) 1.11

Data request, read-out log10 of Ki, for CCOC1(OCC)C2c3cccc(OC)c3C([n+]3ccccc32)C1(C)C (stereo not given) 3.26

Data request, read-out log10 of Ki, for c1ccc(C2(N3CCCCC3)CCCCC2)cc1 1.58

Data request, read-out log10 of Ki, for CCOC1(OCC)C2c3ccccc3C([n+]3cccc(OC)c32)C1(C)C (stereo not given) 1.41

Data request, read-out log10 of Ki, for CCOC1(OCC)C2c3ccccc3C([n+]3ccccc32)C1(CC)CC (stereo not given) 1.04

Data request, read-out log10 of Ki, for CCOC1(OCC)C2c3ccccc3C(C1C)[n+]1ccccc12.[O-][Cl+3]([O-])([O-])[O-] (stereo in doubt; 1b) 1.53

Data request, read-out log10 of Ki, for CC1(C)C2c3ccccc3C(c3cccc[n+]32)C12OCCO2 (stereo not given) 3.54

Data request, read-out log10 of Ki, for CC1(C)C2c3ccccc3C(c3cccc[n+]32)C12OCCCO2 (stereo not given) 3.46
